# System: Radical scavenging activity
# procedureText: Antioxidant activity assessed as DPPH radical scavenging activity
# Format: functional
pIC50: −log10 of the molar value.
readoutLabel: pIC50

molecule: C[C@H](CS)C(=O)N1CCC[C@H]1C(=O)O
measurementTarget: Radical scavenging activity
pIC50: 4.37

(I) Sc1ncnc2nc[nH]c12 [MERCAPTOPURINE ANHYDROUS]
(II) Cc1c(C)c2c(c(C)c1O)CCC(C)(C(=O)O)O2 (centres undefined)
(III) OC[C@H]1O[C@@H](n2cnc3c(S)ncnc32)[C@H](O)[C@@H]1O
Asked: Please produce an ascending ranking of these molecules based on pIC50. Ranked list of labels, please, in the requested order.
Given back: III, I, II
